Test: Cy5 fluorescence interference with SSB-bound oligo, artefact control for HCV NS3 helicase inhibitor project, biochemical, NIH Clinical Collection, E. coli SSB (AID 743268)
PARAMETER MEASURED: fluorescence ratio
Enter a number only.

Example cases with answers are listed next.
Oc1ccc2c3c1OC1C(O)CC[C@@]4(O)[C@@H](C2)N(CC2CCC2)CC[C@]314 (stereo not given in full)
0.97
CN1CC[C@@]23CCCC[C@@H]2[C@@H]1Cc1ccc(O)cc13
0.99

Asked: For C=CCN1CC[C@]23c4c5ccc(O)c4O[C@H]2C(=O)CC[C@@]3(O)[C@H]1C5 , what is its reported fluorescence ratio?
Given back: 0.104

Asked: May I ask what fluorescence ratio has been recorded for CN1CCN(C(=O)O[C@H]2c3nccnc3C(=O)N2c2ccc(Cl)cn2)CC1 ?
Given back: 1

Asked: # input compound: COc1ccc2[nH]cc(CCN)c2c1 ; wanted: its fluorescence ratio
Given back: 0.98

====

Assay: LFS_MB_1R medulloblastoma cell growth inhibition, synergistic combos for chromothripsis tumors, cisplatin or BGB combos (AID 1671452);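 note: cells exposed for 96 hours before readout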
Conditions: LFS_MB_1R medulloblastoma cells, measured here: combination with BGB IC40, at 0.05 µM, stronger effect = higher value
PARAMETER MEASURED: inhibition (%)
Kindly answer with a numeric value in %, unit omitted.

Take a look at these entries with their results.
O=c1[nH]c(=O)n(C2OC(CO)C(O)C2O)cc1F (stereo not drawn)
-3.21
NC(Cc1ccc(N(CCCl)CCCl)cc1)C(=O)O (stereo not drawn)
-28.4
CCC1(c2ccccc2)C(=O)NC(=O)NC1=O
-31.8
CC1(C)C(C(=O)Nc2ccc(S(=O)(=O)c3ccc(NC(=O)C4C(C)(C)C4(C)C)cc3)cc2)C1(C)C
-27.2
O=C1CCC[C@@H]2[C@H]3CCCN4CCC[C@@H](CN12)[C@@H]34
-3.79

Asked: Please look up its inhibition: COc1cc(C2c3cc4c(cc3C(O)C3COC(=O)C23)OCO4)cc(OC)c1OC (stereo not drawn)
Given back: 42.5

Asked: Record request: inhibition value, item Cc1c2ccncc2c(C)c2c1[nH]c1ccccc12
Given back: -15.3

Asked: Quick check: inhibition of O=P(O)(NCCCl)NCCCl ?
Given back: -43.7

====

Assay: growth inhibition of GSK3B-pretreated HCT116 cells – cell-based, CellTiter-Glo, 0.2 to 20 µM (AID 1117336)
Conditions: HCT116 viability after GSK3B inhibitor, at 20 µM
Activity calls are given as the source filed them.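 How the source made its calls: active means compounds lowering colon cancer cell viability after pretreatment blocking the GSK3B kinase; inactive means the rest.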
Would you mind answering with one of these outcomes? class 1 = active, class 0 = inactive

The following compounds have reported results that may help.
O=C1C(I)=CC(=C(c2cc(I)c(O)c(I)c2)c2ccccc2C(=O)O)C=C1I
class 1
COC(=O)C1=CCCN(C)C1
class 0
COc1ccc(C(CN(C)C)C2(O)CCCCC2)cc1 (configuration not stated)
class 0
CCCC(C)C1(CC)C(=O)N=C(S)NC1=O (configuration not stated)
class 0
CCNCC(O)c1cccc(O)c1 (configuration not stated)
class 0
CN1CCc2cc(Cl)c(O)cc2[C@H]2c3ccccc3CC[C@@H]21
class 0
CCC1(CC)C(=O)C=CNC1=O
class 0
CC(C)(O)C(Cl)(Cl)Cl
class 0
COc1ccc2c(C(=O)c3ccc(Cl)cc3)c(C)n(CC(=O)O)c2c1
class 0
NCC(O)c1cccc(O)c1 (configuration not stated)
class 0

Asked: Recorded call for Nc1ccncc1 ?
Given back: class 0

Asked: # outcome recorded in this test, key = CCCCCCC(=O)CCCCCC/C=C/C[C@@H](O)[C@H](O)[C@@](N)(CO)C(=O)O
Given back: class 0

Asked: Tell me the recorded outcome of this test for CCN[C@@H](C)Cc1cccc(C(F)(F)F)c1 .
Given back: class 0
